System: 786-0 renal
Experiment: NCI-60 one-dose screen, 48 h (100 = growth as untreated, 0 = no growth, -100 = all killed)
Details: 10 µM unless noted
Description: Cells are grown in 96 well plates and exposed to the test compound for 48 hours. Compounds are tested at a single concentration, which is 10^-5 M for most compounds. The reported endpoint is percent growth (GI% or GIPRCNT), where numbers from 0 - 100% represent growth inhibition, and numbers from -100% - 0 represent cell death. For example, a value of 40 represents 60% growth inhibition. A value of 0 means no net growth occurred over the course of the experiment. […]
Compounds without any hit were thinned out: in the full panel of roughly 83,000, 20% have a hit.

| sampleSmiles | measurementUnit | growth |
| --- | --- | --- |
| C[C@H](CCC(=O)O)[C@H]1CC[C@H]2[C@@H]3CC[C@@H]4/C(=C\c5ccco5)C(=O)/C(=C\c5ccco5)C[C@]4(C)[C@H]3CC[C@]12C | % | 91 |
| COc1ccc(S(=O)(=O)NCCNc2nccc(-c3c(-c4cccc([N+](=O)[O-])c4)nc4sccn34)n2)cc1 | % | 87.9 |
| COc1cc(NCCCCN=C(N)N)c2ncccc2c1 | % | 91.6 |
| COc1ccc(/C=c2/c(=O)[nH]c3nc4sc(C)c(C)c4c(=O)n23)cc1 | % | 88.1 |

* * *

Tested on: NCI-H522 lung
Experiment: NCI-60 one-dose screen, 48 h
Conditions: 10 µM unless noted
About 83,000 compounds went through this panel and 20% of them were active in at least one assay; those are over-represented in the sample as a whole. Active and inactive are the calls of the source. How the source made its calls: active means growth percent below 10; inactive means the rest.
Outcomes: T = active, F = inactive

| compound | system | assignedCategory |
| --- | --- | --- |
| CC(C)c1c(C(=O)Nc2ccccc2)c(-c2ccccc2)c(-c2ccc(F)cc2)n1CC[C@@H]1CC=CC(=O)O1 | NCI-H522 lung | T |
| COc1ccc(CNc2nccnn2)cc1 | NCI-H522 lung | F |
| N=c1c2ccccc2nc2n1CCCCC2 | NCI-H522 lung | F |
| CC(C)(C)n1cc(-c2ccnc(NCCCNS(=O)(=O)c3cccc4ccccc34)c2)c(-c2cccc(O)c2)n1 | NCI-H522 lung | F |
| CCN(CC)Cc1cc(Nc2c3ccccc3nc3cc(Cl)ccc23)ccc1O | NCI-H522 lung | T |
| Cc1ccc(Nc2c(C(N)=O)cnc3ccc(-c4csc(N)n4)cc23)cc1 | NCI-H522 lung | F |
| Cc1nn(-c2ccccc2)c2nc(C)n(-c3ccc(Br)cc3)c(=O)c12 | NCI-H522 lung | T |
| O=C1c2cc3c(cc2-c2c1c1cc(Cl)c(Cl)cc1c(=O)n2C[C@H](O)CO)OCO3 | NCI-H522 lung | T |
| CC(=O)Oc1cc2cnc3c4cc(OC(C)=O)c(OC(C)=O)cc4ccc3c2cc1OC(C)=O | NCI-H522 lung | T |
| Cc1ccc2cnc(N)c(C#Cc3cncc(C(=O)Nc4ccc(CN5CCN(C)CC5)c(C(F)(F)F)c4)c3)c2c1 | NCI-H522 lung | T |
| Cn1c(=O)c2[nH]c(C(O)C(O)C(O)C(O)CO)nc2n(C)c1=O (centres undefined) | NCI-H522 lung | F |
| Cc1nn(-c2nc3ccccc3[nH]2)c2c1C(c1ccc3c(c1)OCO3)CC(=O)N2 (centres undefined) | NCI-H522 lung | F |
| COc1ccc(S(=O)(=O)NCCCNc2nccc(-c3c(-c4cccc(N)c4)nc4sccn34)n2)cc1 | NCI-H522 lung | F |
| O=C(Nc1ccc(CN2CCOCC2)cc1)c1[nH]ncc1Nc1ncnc2sccc12 | NCI-H522 lung | T |
| CSc1ncnc2c1ncn2C1CCCO1 (centres undefined) | NCI-H522 lung | F |
| O=C1C(Cl)=C(Cl)C(=O)c2c1nc1n2CCCC1 | NCI-H522 lung | F |
| COc1c(C2CC(=O)Nc3c2cnn3Cc2ccco2)cc2c(c1OC)OCO2 (centres undefined) | NCI-H522 lung | T |
| CCn1cc2c(cc1=O)-c1nc3ccccc3c3ccnc(c13)C2=O | NCI-H522 lung | F |
| CCOC(=O)/C=C/C(=O)[C@H](CC(C)C)NC(=O)[C@H](Cc1ccccc1)NC(=O)OCc1ccccc1 | NCI-H522 lung | F |
| C=C1CC[C@@H]2[C@](C)(COC(C)=O)[C@H](OC(C)=O)CC[C@@]2(C)[C@@H]1CC(NCc1ccc(F)cc1)C1=CCOC1=O (some centres undefined) | NCI-H522 lung | F |
| COc1ccc(-c2csc(NC(=O)CN3CCN(c4cc5c(cc4F)c(=O)c(C(=O)O)cn5C4CC4)CC3)n2)cc1 | NCI-H522 lung | T |
| C=C1CC2(OC1=O)C(=O)Nc1ccccc12 (centres undefined) | NCI-H522 lung | T |
| COc1ccc(-c2cc(-c3ccc(N(C)C)cc3)nc(NC(=O)c3ccncc3)n2)cc1 | NCI-H522 lung | F |
| C=C1C(=O)O[C@H]2[C@H]1CC/C(Cn1cc(Cn3ccc4cc(Cl)ccc43)nn1)=C\CC[C@@]1(C)O[C@@H]21 | NCI-H522 lung | T |
| O=C1C(=O)N(CCCCn2cc(CO)nn2)c2ccccc21 | NCI-H522 lung | F |
| CCCCCCCCCc1cc(CN2CCCCC2)c(O)c(CN2CCCCC2)c1 | NCI-H522 lung | F |
| CN(C)c1ccc(C2Nc3ccccc3-n3cccc32)cc1 (centres undefined) | NCI-H522 lung | F |
| COc1cnc2c(c1)C(=O)c1c-2n(CCCBr)c(=O)c2cc([N+](=O)[O-])ccc12 | NCI-H522 lung | T |
| CC(=O)CC(C)(C)c1ccc(Cl)cc1 | NCI-H522 lung | F |
